- System: M14
- assay_name: NCI tumour cell line growth inhibition, 48 h
Calls of active or inactive are those of the source. No stated cut-off is given here; in the data, active = GI50 up to about 1.1 µM and inactive = higher.
Outcomes: yes for active, no for inactive

compound	assigned_category
CCOC(=O)C1OC(C2(C)OC3(OC4(C=CC3O)OC(C(C)C(=O)C(C)C(O)C(C)CC(C)c3c(Cl)cc(C)c(O)c3C(=O)O)C(C)CC4C)C(C)C2OC)CC1O (stereo unspecified)	yes
Cc1cc(C)nc(NS(=O)(=O)c2ccc(NC(=O)COC(=O)c3cccc4c(=O)c5ccccc5[nH]c34)cc2)n1	no
COC(=O)C(=O)Cc1nc2ccccc2s1	no
O=c1[nH]cnc2cccc(Cl)c12	no
CCOC(=O)Cc1nc2cc(F)c(F)cc2[nH]c1=O	no
COCCNC1CCC2(SCCS2)c2[nH]c3ccccc3c21 (stereo unspecified)	no
Nc1cc[nH]c(=O)n1	no
CN(/N=C/c1cccs1)c1ccc(Cl)cc1[N+](=O)[O-]	no
Cn1c(=O)c2c(nc3n(Cc4ccccc4)c(=O)c(NCCBr)cn23)n(C)c1=O	no
CC(=O)OC1CC[C@@]2(C)C(CC(OC3OC(CO)C(O)C(O)C3O)[C@]3(C)C2CCC24CC23CC[C@H]4C(C)CC(O)[C@@H](O)C(C)(C)O)C1(C)C (stereo partly specified)	no
COC(=O)C1=C(C)NC(C)=C(C(=O)OC)C1c1ccc(/[N+]([O-])=C/c2ccccc2)cc1	no
CCNc1nnc(CSc2nc(-c3ccccc3)c(-c3ccccc3)[nH]2)s1	no
c1ccc2cc(NCNc3ccc4ccccc4c3)ccc2c1	no
C=CC1(c2ccc(Br)cc2)OCCCO1	no
Cc1ccc(O)c(C(=O)CCCC(=O)c2cc(C)ccc2O)c1	no
O=C1c2ccccc2NC(=S)[C@@H]2CCCN12	no
COc1ccc(-c2nc(Sc3c([N+](=O)[O-])ncn3C)n[nH]2)cc1	no
Cc1cccc(NC2=NCCO2)c1Cl	no
Cc1cc(C(C)(C)C)cc(CNC2CCCCC2)c1O	no
CN1CCN(C(=O)c2cn(Cc3cncn3Cc3ccc4c(c3)OCO4)cc2-c2cccc3ccccc23)CC1	yes
C/C1=C\[C@H](C)C[C@H](C)OC(=O)C[C@H](c2ccc(O)cc2)NC(=O)[C@H](Cc2ccc(O)c(Br)c2)N(C)C(=O)[C@H](C)NC(=O)[C@@H](C)C1	no

* * *

- Test system: Hs-578T
- assay_name: NCI tumour cell line growth inhibition, 48 h
The source made the active and inactive calls. No stated cut-off is given here; in the data, active = GI50 up to about 1.1 µM and inactive = higher.
GI50 by entry:
measured_endpoint: GI50

>>> print(df.to_string())
                                   molecule               result
0  CC(C)Oc1cccc(N2C(NCc3c[nH]c4ccccc34)=Nc3ccncc3S2(=O)=O)c1   16.2 µM (inactive)
1                    Cc1cccc(NC2=NCCO2)c1Cl  > 100 µM (inactive)
2  CC(=O)OC1C2CCC1C1C2N=NN1c1ccc([N+](=O)[O-])cc1 (stereo not given)  > 100 µM (inactive)
3  CC(=O)Oc1ccc(-c2nnc(-c3ccc(OC(C)=O)cc3)nn2)cc1  > 100 µM (inactive)
4  O=C(OCC(OC(=O)c1ccccc1)C(OC(=O)c1ccccc1)C(OC(=O)c1ccccc1)c1cnn(-c2ccccc2)n1)c1ccccc1 (stereo not given)  > 100 µM (inactive)

* * *

- System: IGROV-1
- assay_name: NCI tumour cell line growth inhibition, 48 h
Calls of active or inactive are those of the source. Cut-off read from the data, not from the text of the source: active = GI50 up to about 1.1 µM and inactive = higher.
measured_endpoint: GI50

                                   molecule               result
0  N#CCN(CC#N)C1CC=CCC1N(CC#N)CC#N (centres undefined)  > 100 µM (inactive)
1  COC(=O)C(=O)C(C(=O)C=C(C)C)C(=O)C(=O)Nc1cccc(C(C)=O)c1 (centres undefined)  > 100 µM (inactive)
2  CCCC(=O)NC(Nc1ccc(S(=O)(=O)Nc2nc(C)cc(C)n2)cc1)(C(F)(F)F)C(F)(F)F  > 100 µM (inactive)
3  C/C1=C\[C@H](C)C[C@H](C)OC(=O)C[C@H](c2ccc(O)cc2)NC(=O)[C@H](Cc2ccc(O)c(Br)c2)N(C)C(=O)[C@H](C)NC(=O)[C@@H](C)C1   > 25 µM (inactive)

* * *

- Tested on: BT-549
- assay_name: NCI tumour cell line growth inhibition, 48 h
The source made the active and inactive calls. No stated cut-off is given here; in the data, active = GI50 up to about 1.1 µM and inactive = higher.
measured_endpoint: GI50

>>> print(df.to_string())
                                   compound  measured_endpoint               result
0  OC[C@H]1CC(c2nn[nH]n2)[C@H](O)[C@@H]1O (stereo partly specified)               GI50  > 100 µM (inactive)
1       Cc1n[n+](CC(=O)c2ccccc2)c2sc(N)nn12               GI50  > 100 µM (inactive)
2                       CCc1n[nH]c(=O)n1CCO               GI50  > 100 µM (inactive)
3  COc1ccc(-n2c(N)c(C#N)c(C#N)c2-c2ccccc2)cc1               GI50   19.1 µM (inactive)
4            Cc1nc(-c2ccccc2)c(-c2ccccc2)s1               GI50   23.9 µM (inactive)
5  CC(C)N(Cc1ccccc1)S(=O)(=O)c1nc(C(C)(C)C)n[nH]1               GI50  > 100 µM (inactive)

* * *

- System: IGROV-1
- assay_name: NCI tumour cell line growth inhibition, 48 h
Active and inactive are the calls of the source. No stated cut-off is given here; in the data, active = GI50 up to about 1.1 µM and inactive = higher.
Classes used: active, inactive

molecule	assigned_category
COc1ccc(N2CN(C)CSC2=S)cc1	inactive
Cn1c(N)[n+](C(=O)OCc2ccccc2)c(=O)c2c1ncn2C(=O)OCc1ccccc1	inactive
CCCCCCCCCCCCCCCC(=O)OC1C(O)C(CO)OC(OC)C1NC(=O)N(CCCl)N=O (stereo unspecified)	inactive
c1cc(CCN2CCCCC2)ccn1	inactive
COCN1COCN/C1=N\C#N	inactive
Clc1ccc(C(c2ccc(Cl)cc2)c2cncnc2)cc1	inactive
c1ccc2cc(NCNc3ccc4ccccc4c3)ccc2c1	inactive
CCCCCCCCCC1C(C)c2c([nH]c3ccccc23)C2C(=O)N(c3ccccc3)C(=O)C21 (stereo unspecified)	inactive
CCC1(O)CC(OC2CC(N(C)C)C(OC3CC(O)C(OC4CCC(=O)C(C)O4)C(C)O3)C(C)O2)c2c(cc3c(c2O)C(=O)c2c(O)ccc(O)c2C3=O)C1C(=O)OC (stereo unspecified)	active
CC(=O)Nc1ccc2[nH]c(C(=O)N3CC(CCl)c4c3cc(N)c3ccccc43)cc2c1 (stereo unspecified)	active
COc1ccccc1/C=C1\Sc2scc(-c3ccc(O)c(O)c3)[n+]2C1=O	inactive
C=CCn1c(=O)c(Br)nn(CCOCP(=O)(OCC)OCC)c1=O	inactive
CCc1n[nH]c(=O)n1CCO	inactive
C/C(=N/Nc1ccc([N+](=O)[O-])cc1[N+](=O)[O-])C(CC(C(=O)NCc1ccccc1)/C(C)=N\Nc1ccc([N+](=O)[O-])cc1[N+](=O)[O-])C(=O)NCc1ccccc1 (stereo unspecified)	inactive
CCC1(c2ccc(N3C(=O)c4cccc5cc([N+](=O)[O-])cc(c45)C3=O)cc2)CCC(=O)NC1=O (stereo unspecified)	inactive
Cc1ccccc1NC(=O)C1C(=O)N(c2ccccc2C)C(=O)/C1=N\NC(N)=S (stereo unspecified)	inactive
O=C1CNC(=O)N1	inactive
Cc1c2ccccc2c(CSC(=N)N)c2ccccc12	active
CN1N=C(c2ccncc2)OC1c1cccc(C(F)(F)F)c1 (stereo unspecified)	inactive
CC(=O)OC1C/C(C)=C/[C@H](O)CC(C)/C=C/[C@@]2(C)CCC(C(C)(C)O)C12 (stereo partly specified)	inactive
CCN(CC)Cc1nc2sc3c(c2c(=O)n1-c1ccccc1)CCCC3	inactive
COCn1cnc2c(=O)n(-c3ccc(OC)cc3)c(=S)n(-c3ccc(OC)cc3)c21	inactive
COc1ccc(C(=O)NCCC2CN(S(=O)(=O)C(F)(F)F)c3ccccc32)c(OC)c1 (stereo unspecified)	inactive
O=c1[nH]cnc2cccc(Cl)c12	inactive
CCN(CC)C1Oc2cc3c(cc2C(c2cc(OC)c(OC)c(OC)c2)C1C)OCO3 (stereo unspecified)	inactive
N/N=c1\[nH]c2ccccc2o1	inactive
CC(=O)CC(=O)CCC(=O)O	inactive
CC1CC[C@@]2(OC1)OC1C[C@H]3[C@@H]4CC=C5CC(OC6OC(CO)C(OC7OC(CO)C(O)C(OC8OCC(O)C(O)C8O)C7OC7OC(CO)C(OC8OC(C)C(OC9OC(C)C(O)C(O)C9O)C(O)C8O)C(O)C7O)C(O)C6O)CCC5(C)[C@H]4CCC3(C)C1[C@@H]2C (stereo partly specified)	inactive
Cc1n[n+](CC(=O)c2ccccc2)c2sc(N)nn12	inactive
O=C1CC(c2ccccc2Cl)C2(C(=O)NC(=O)NC2=O)C(c2ccccc2Cl)C1 (stereo unspecified)	active
O=C1OC(c2ccccc2)=N/C1=C\c1ccc(N(CCCl)CCCl)cc1	inactive
COc1ccc2c(c1)NC1(CCN(CCCC(=O)c3ccc(F)cc3)CC1)N=N2	inactive
COC(=O)/C(C#N)=C1\CCc2ccccc21	inactive
CC(=O)/C=C1\Nc2ccccc2N\C1=C/C(C)=O	inactive
N#Cc1c2nc3ccccc3nc2n2ccccc12	inactive
C=CCN1C[C@H](C)N([C@H](c2ccc(C(=O)N(CC)CC)cc2)c2cccc(OC)c2)C[C@H]1C	inactive
COc1ccc(OCC(=N/NC(=O)c2ccncc2)/N=C/c2ccncc2)cc1	inactive
O=C(/C=C/c1ccsc1)c1ccc(Cl)s1	inactive
Cc1ccc2c(O)cc(-c3sc4ccccc4c3C)nc2n1	inactive
CC1(C)CCCC(C)(C2CCC3(C)C2C(O)CC2C4(C)CCC(O)C(C)(C)C4CCC23C)O1 (stereo unspecified)	inactive
Cc1ccc(S(=O)(=O)NC(C)C(=O)O)cc1 (stereo unspecified)	inactive
